Items are presented alongside their recorded Accumulative excretion percentage.
test-details: Fecal excretion study in rats after oral NS, SF or CNS (LC–MS/MS)
Format: in vivo
measurement-setup: rat feces, oral NS 60 mg/kg, 120 h
Remember to put the unit after the number in your answer.

As a guide, the following entries are already answered.
[[record]]
molecule = "CC(C)=CCC[C@](C)(O[C@@H]1O[C@H](CO)[C@@H](O)[C@H](O)[C@H]1O)[C@H]1CC[C@]2(C)[C@@H]1[C@H](O)C[C@@H]1[C@@]3(C)CC[C@H](O[C@@H]4O[C@H](CO)[C@@H](O)[C@H](O)[C@H]4O[C@@H]4O[C@H](CO)[C@@H](O)[C@H](O)[C@H]4O)C(C)(C)[C@@H]3CC[C@]12C [ginsenoside Rd]"
readout_type = "Accumulative excretion percentage"
result = "6.589±2.068%"

[[record]]
molecule = "CC(C)=CCC[C@](C)(O[C@@H]1O[C@H](CO)[C@@H](O)[C@H](O)[C@H]1O)[C@H]1CC[C@]2(C)[C@@H]1[C@H](O)C[C@@H]1[C@@]3(C)CC[C@H](O)C(C)(C)[C@@H]3[C@@H](O[C@@H]3O[C@H](CO)[C@@H](O)[C@H](O)[C@H]3O)C[C@]12C [ginsenoside Rg1]"
readout_type = "Accumulative excretion percentage"
result = "3.824±1.132%"


Next molecule, Accumulative excretion percentage to be filled in.
Exercise: # Accumulative excretion percentage lookup, item CC(C)=CCC[C@](C)(O[C@@H]1O[C@H](CO[C@@H]2O[C@H](CO)[C@@H](O)[C@H](O)[C@H]2O)[C@@H](O)[C@H](O)[C@H]1O)[C@H]1CC[C@]2(C)[C@@H]1[C@H](O)C[C@@H]1[C@@]3(C)CC[C@H](O[C@@H]4O[C@H](CO)[C@@H](O)[C@H](O)[C@H]4O[C@@H]4O[C@H](CO)[C@@H](O)[C@H](O)[C@H]4O)C(C)(C)[C@@H]3CC[C@]12C [ginsenoside Rb1]
Solution: 2.745±0.858%

====

test-details: Fecal excretion study in rats after oral NS, SF or CNS (LC–MS/MS)
Type: in vivo
measurement-setup: rat feces, oral NS 60 mg/kg, 72 h
Items are presented alongside their recorded Accumulative excretion amount.
Supply the numeric figure in µg, leaving out any unit text.

As a guide, the following entries are already answered.
[[record]]
molecule = "CC(C)=CCC[C@](C)(O[C@@H]1O[C@H](CO)[C@@H](O)[C@H](O)[C@H]1O)[C@H]1CC[C@]2(C)[C@@H]1[C@H](O)C[C@@H]1[C@@]3(C)CC[C@H](O)C(C)(C)[C@@H]3[C@@H](O[C@@H]3O[C@H](CO)[C@@H](O)[C@H](O)[C@H]3O[C@@H]3O[C@@H](C)[C@H](O)[C@@H](O)[C@H]3O)C[C@]12C [ginsenoside Re]"
value_unit = "µg"
numeric_value = 38.423

[[record]]
molecule = "CC(C)=CCC[C@](C)(O[C@@H]1O[C@H](CO)[C@@H](O)[C@H](O)[C@H]1O)[C@H]1CC[C@]2(C)[C@@H]1[C@H](O)C[C@@H]1[C@@]3(C)CC[C@H](O)C(C)(C)[C@@H]3[C@@H](O[C@@H]3O[C@H](CO)[C@@H](O)[C@H](O)[C@H]3O)C[C@]12C [ginsenoside Rg1]"
value_unit = "µg"
numeric_value = 133.372

[[record]]
molecule = "CC(C)=CCC[C@](C)(O[C@@H]1O[C@H](CO)[C@@H](O)[C@H](O)[C@H]1O)[C@H]1CC[C@]2(C)[C@@H]1[C@H](O)C[C@@H]1[C@@]3(C)CC[C@H](O[C@@H]4O[C@H](CO)[C@@H](O)[C@H](O)[C@H]4O[C@@H]4O[C@H](CO)[C@@H](O)[C@H](O)[C@H]4O)C(C)(C)[C@@H]3CC[C@]12C [ginsenoside Rd]"
value_unit = "µg"
numeric_value = 56.907


Exercise: # Accumulative excretion amount lookup, item CC(C)=CCC[C@](C)(O[C@@H]1O[C@H](CO[C@@H]2O[C@H](CO)[C@@H](O)[C@H](O)[C@H]2O)[C@@H](O)[C@H](O)[C@H]1O)[C@H]1CC[C@]2(C)[C@@H]1[C@H](O)C[C@@H]1[C@@]3(C)CC[C@H](O[C@@H]4O[C@H](CO)[C@@H](O)[C@H](O)[C@H]4O[C@@H]4O[C@H](CO)[C@@H](O)[C@H](O)[C@H]4O)C(C)(C)[C@@H]3CC[C@]12C [ginsenoside Rb1]
Solution: 117.237
